test system: HOP-18; experiment: NCI tumour cell line growth inhibition, 48 h
Active and inactive are the calls of the source. No stated cut-off is given here; in the data, active = GI50 up to about 1.1 µM and inactive = higher.
Your response should consist of one outcome taken from 1 (active), 0 (inactive)

These solved cases illustrate the format of a correct answer.
compound	class-assignment
CCCCN(CCCC)C(=Nc1ccccc1)N(CCCC)CCCC	0
CC(NS(=O)(=O)c1ccc([N+](=O)[O-])cc1)C(=O)O (stereo unspecified)	0
NS(=O)(=O)c1ccccc1C(=O)N/N=C(\c1nc2ccc([N+](=O)[O-])cc2[nH]c1=O)C(O)c1ccc([N+](=O)[O-])cc1 (stereo unspecified)	0
CC(=O)OCCOCBr	0
CC/C=C/c1cc2cc[nH]c2c2c1C(C)C[C@@H]2C (stereo partly specified)	0

Write down the call the test reported for this compound. Item: `CCOC(=O)c1[nH]c2c(OC)n[n+]([O-])cc2c1[N+](=O)[O-]`
0

Outcome logged for `CCOC(=O)c1ccc(C)c(/N=N/N(C)C)c1` in this assay:
0

Outcome logged for CCC1(O)C(=O)OCc2c1cc1n(c2=O)Cc2c-1nc1ccccc1c2OC (stereo unspecified) in this assay:
1

Hi team, can someone confirm the assay call for `Oc1cc(-c2ccc3c(c2)OCO3)nc2cc3c(cc12)OCO3` ?
0

Which result was noted for this compound in the test: `COC(=O)N/N=C(\C(=O)Nc1cccc([N+](=O)[O-])c1)c1nc2ccc([N+](=O)[O-])cc2nc1O`
0

Entry CCCCCOCC(O)CO (stereo unspecified) : call = ?
0

----------
GI50 values by entry
tested on: LOX IMVI; experiment: NCI tumour cell line growth inhibition, 48 h
The source made the active and inactive calls. Cut-off read from the data, not from the text of the source: active = GI50 up to about 1.1 µM and inactive = higher.

compound	GI50
O=c1[nH]nc(Cc2ccccc2)n1/N=C/c1ccccc1O	> 100 µM (inactive)
O=c1[nH]c(=O)n(C2OC(CO)C(O)C2O)cc1OCC(F)(F)F (stereo not drawn)	> 100 µM (inactive)
N#CS/C(C(Cl)=C(Cl)Cl)=C(/Cl)[N+](=O)[O-]	0.904 µM (active)
Cc1cc(C)nc(NS(=O)(=O)c2ccc(NC(=O)c3cccn4c(=O)c5ccccc5nc34)cc2)n1	29.1 µM (inactive)
COc1cc(OC)c2c(O)c3c(cc2c1)CC(C)(C)CC3=O	> 100 µM (inactive)

Give LOX IMVI GI50 for the following compound: `COc1ccc(-c2csc(Cc3nc4c(Br)cc(Br)cc4c(=O)n3-c3ccc(OC)cc3)n2)cc1`
> 100 µM (inactive)

Give reported GI50 for `CCOC(=O)Cn1c(=O)c(C)cn(COCCO)c1=O` (LOX IMVI)
> 100 µM (inactive)

// fetch GI50 for `CCNC(=S)N/N=C/c1cc(OC)ccc1O` ; system: LOX IMVI
99.3 µM (inactive)

----------
test system: U-251; assay: NCI tumour cell line growth inhibition, 48 h
Calls of active or inactive are those of the source. Rule as the data show it: active = GI50 up to about 1.1 µM and inactive = higher.
Overview of reported GI50 across a group of compounds:

Please supply the value of reported GI50 for the item `Cc1cc2ccccc2oc(=O)/c1=N\Nc1ccccc1`
39.9 µM (inactive)

Tell me GI50 reported for CCOC1=C2N=C(C(CC)c3ccc(F)cc3)N=C2C(=O)c2ccccc21 (stereo unspecified)
21.7 µM (inactive)

Hello, please tell me recorded GI50 for this one: `Cc1ccc(C2=CC(=O)/C(=C\C(=O)c3ccc(Br)cc3)O2)c(C)c1`
18 µM (inactive)

Please report the measured GI50 for CC(C)(O)C(O)COc1c2c(cc3oc(=O)ccc13)OCO2 (stereo unspecified)
> 100 µM (inactive)

Find the measured GI50 of `Nc1n/c(=N\c2ccccc2)ss1` and report it.
> 100 µM (inactive)

Look up and report measured GI50 for this entry: `CCOC(=O)Nn1cnnc1Cc1ccccc1`
> 100 µM (inactive)
